Test system: OCUB-M (Breast Carcinoma)
Method summary: combination Emax (second highest fraction inhibited in the dose matrix, 72 h); higher = more inhibition; extreme values may be limits of the assay
Quantity kind: combination Emax

# Molecule, Target system, combination Emax
data = [
    ("CS(=O)(=O)CCNCc1ccc(-c2ccc3ncnc(Nc4ccc(OCc5cccc(F)c5)c(Cl)c4)c3c2)o1 [Lapatinib] + NC1(c2ccc(-c3nc4ccn5c(=O)[nH]nc5c4cc3-c3ccccc3)cc2)CCC1 [MK-2206] (first compound max 10 µM, 7x7, partner max 10 µM)", "OCUB-M (Breast Carcinoma)", 1),
    ("CC1(C)CCC(CN2CCN(c3ccc(C(=O)NS(=O)(=O)c4ccc(NCC5CCOCC5)c([N+](=O)[O-])c4)c(Oc4cnc5[nH]ccc5c4)c3)CC2)=C(c2ccc(Cl)cc2)C1 [Venetoclax] + Cn1cnc2c(F)c(Nc3ccc(Br)cc3Cl)c(C(=O)NOCCO)cc21 [Selumetinib] (first compound max 1 µM, 7x7, partner max 3 µM)", "OCUB-M (Breast Carcinoma)", 0.286),
]

Lookup: Annotate the molecule CCN(CCO)CCCOc1ccc2c(Nc3cc(CC(=O)Nc4cccc(F)c4)[nH]n3)ncnc2c1 [AZD2811] + C=CCn1c(=O)c2cnc(Nc3ccc(N4CCN(C)CC4)cc3)nc2n1-c1cccc(C(C)(C)O)n1 [AZD1775] (first compound max 1 µM, partner max 1 µM) with its measured combination Emax.
Found: 0.779

Lookup: Look up and state reported combination Emax for Cc1cc2ncnn2cc1Nc1ncc2c(n1)n(C1CCOCC1)c(=O)n2C [AZD7648] + C=CCn1c(=O)c2cnc(Nc3ccc(N4CCN(C)CC4)cc3)nc2n1-c1cccc(C(C)(C)O)n1 [AZD1775] (first compound max 10 µM, partner max 1 µM)
Found: 0.448

Lookup: Specify combination Emax for CN(C)CCCOc1ccc(-c2ccc3ncc4c(c3c2)n(C2CCOCC2)c(=O)n4C)cn1 [AZD0156] + C=CCn1c(=O)c2cnc(Nc3ccc(N4CCN(C)CC4)cc3)nc2n1-c1cccc(C(C)(C)O)n1 [AZD1775] (first compound max 1 µM, partner max 1 µM) and stop.
Found: 0.209

Lookup: Please list combination Emax recorded for the molecule Cn1cnc2c(F)c(Nc3ccc(Br)cc3Cl)c(C(=O)NOCCO)cc21 [Selumetinib] + CC(C)n1c(=O)n(C)c2cnc3cc(F)c(-c4ccc(OCCCN5CCCCC5)nc4)cc3c21 [AZD1390] (first compound max 10 µM, 7x7, partner max 0.3 µM)
Found: 0.0283

Lookup: Dear colleague, please send me the reported combination Emax for CN(CCO)CC[C@H](CSc1ccccc1)Nc1ccc(S(=O)(=O)NC(=O)c2ccc(N3CCC([C@@H](O)c4ccccc4-c4ccc(Cl)cc4)CC3)cc2)cc1S(=O)(=O)C(F)(F)F [AZD4320] + Cn1cnc2c(F)c(Nc3ccc(Br)cc3Cl)c(C(=O)NOCCO)cc21 [Selumetinib] (first compound max 1 µM, 7x7, partner max 3 µM) when you can.
Found: 0.797

Lookup: For the molecule COc1cccc2c1C(=O)c1c(O)c3c(c(O)c1C2=O)C[C@@](O)(C(=O)CO)C[C@@H]3O[C@H]1C[C@H](N)[C@H](O)[C@H](C)O1 [Doxorubicin] + Cc1cc2ncnn2cc1Nc1ncc2c(n1)n(C1CCOCC1)c(=O)n2C [AZD7648] (first compound max 1 µM, 7x7, partner max 10 µM) , give its reported combination Emax.
Found: 0.943

Lookup: Read the entry COc1cc2ncnc(Nc3ccc(F)c(Cl)c3)c2cc1OCCCN1CCOCC1 [Gefitinib] + CC(C)n1c(=O)n(C)c2cnc3cc(F)c(-c4ccc(OCCCN5CCCCC5)nc4)cc3c21 [AZD1390] (first compound max 10 µM, 7x7, partner max 0.3 µM) and write its reported combination Emax.
Found: 0.154

Lookup: Report measured combination Emax; entry is NC1(C(=O)N[C@@H](CCO)c2ccc(Cl)cc2)CCN(c2ncnc3[nH]ccc23)CC1 [Capivasertib] + CC(=O)c1c(C)c2cnc(Nc3ccc(N4CCNCC4)cn3)nc2n(C2CCCC2)c1=O [Palbociclib] (first compound max 10 µM, 7x7, partner max 10 µM)
Found: 0.994

Lookup: Give combination Emax for the following molecule: COc1nnc2ccc(N3CCC(c4ccc(OCCN5CCN(C)C(=O)[C@H]5C)cc4)CC3)nn12 [AZD5153] + C[C@@H]1COCCN1C2=NC(=NC(=C2)C3(CC3)[S@](=N)(=O)C)C4=C5C=CNC5=NC=C4 [AZD6738] (first compound max 1 µM, 7x7, partner max 10 µM)
Found: 0.735

Lookup: Supply combination Emax value. Item: CN(CCO)CC[C@H](CSc1ccccc1)Nc1ccc(S(=O)(=O)NC(=O)c2ccc(N3CCC([C@@H](O)c4ccccc4-c4ccc(Cl)cc4)CC3)cc2)cc1S(=O)(=O)C(F)(F)F [AZD4320] + CCN(CCO)CCCOc1ccc2c(Nc3cc(CC(=O)Nc4cccc(F)c4)[nH]n3)ncnc2c1 [AZD2811] (first compound max 1 µM, 7x7, partner max 1 µM)
Found: 0.874

Lookup: # return recorded combination Emax for input CC1(C)CCC(CN2CCN(c3ccc(C(=O)NS(=O)(=O)c4ccc(NCC5CCOCC5)c([N+](=O)[O-])c4)c(Oc4cnc5[nH]ccc5c4)c3)CC2)=C(c2ccc(Cl)cc2)C1 [Venetoclax] + C1CN(CCC1(C(=O)N[C@@H](CCO)C2=CC=C(C=C2)Cl)N)C3=NC=NC4=C3C=CN4 [Capivasertib] (first compound max 1 µM, 7x7, partner max 3 µM)
Found: 0.942

###

System: LC4-1 (B-Lymphoblastic Leukemia)
Method summary: Bliss excess, mean over the matrix (fraction); higher = more synergy
Quantity kind: Bliss excess

Lookup: Give Bliss excess; test system LC4-1 (B-Lymphoblastic Leukemia); compound CC1(C)CCC(CN2CCN(c3ccc(C(=O)NS(=O)(=O)c4ccc(NCC5CCOCC5)c([N+](=O)[O-])c4)c(Oc4cnc5[nH]ccc5c4)c3)CC2)=C(c2ccc(Cl)cc2)C1 [Venetoclax] + CCN(CCO)CCCOc1ccc2c(Nc3cc(CC(=O)Nc4cccc(F)c4)[nH]n3)ncnc2c1 [AZD2811] (first compound max 1 µM, 7x7, partner max 1 µM)
Found: 0.0039

###

Tested on: NH-12 (Neuroblastoma)
Method summary: Bliss excess, mean over the matrix (fraction); higher = more synergy
Quantity kind: Bliss excess
# print the numeric value only

Examples with their reported Bliss excess follow.
# Compound, Target system, Assay value
data = [
    ("Cc1c2c(nn1C)CSCc1cc(n(C)n1)CSc1cc(c3ccccc3c1)OCCCc1c(C(=O)O)n(C)c3c-2c(Cl)ccc13 [AZD5991] + C[C@@H]1COCCN1C2=NC(=NC(=C2)C3(CC3)[S@](=N)(=O)C)C4=C5C=CNC5=NC=C4 [AZD6738] (first compound max 1 µM, 7x7, partner max 10 µM)", "NH-12 (Neuroblastoma)", 0.0031),
    ("CN(C)CCCOc1ccc(-c2ccc3ncc4c(c3c2)n(C2CCOCC2)c(=O)n4C)cn1 [AZD0156] + O=C(c1cc(Cc2n[nH]c(=O)c3ccccc23)ccc1F)N1CCN(C(=O)C2CC2)CC1 [Olaparib] (first compound max 3 µM, partner max 3 µM)", "NH-12 (Neuroblastoma)", -0.0131),
    ("C[C@@H]1COCCN1c1cc(C2([S@](C)(=N)=O)CC2)nc(-c2ccnc3[nH]ccc23)n1 [AZD6738] + O=C(c1cc(Cc2n[nH]c(=O)c3ccccc23)ccc1F)N1CCN(C(=O)C2CC2)CC1 [Olaparib] (first compound max 10 µM, 7x7, partner max 10 µM)", "NH-12 (Neuroblastoma)", -0.0308),
    ("CCN(CCO)CCCOc1ccc2c(Nc3cc(CC(=O)Nc4cccc(F)c4)[nH]n3)ncnc2c1 [AZD2811] + C=CCn1c(=O)c2cnc(Nc3ccc(N4CCN(C)CC4)cc3)nc2n1-c1cccc(C(C)(C)O)n1 [AZD1775] (first compound max 1 µM, partner max 1 µM)", "NH-12 (Neuroblastoma)", -0.0012),
]

Lookup: # return recorded Bliss excess for input CC(=O)c1c(C)c2cnc(Nc3ccc(N4CCNCC4)cn3)nc2n(C2CCCC2)c1=O [Palbociclib] + CN(CC[C@H](CSC1=CC=CC=C1)NC2=C(C=C(C=C2)S(=O)(=O)NC(=O)C3=CC=C(C=C3)N4CCC(CC4)[C@H](C5=CC=CC=C5C6=CC=C(C=C6)Cl)O)S(=O)(=O)C(F)(F)F)CCO [AZD4320] (first compound max 10 µM, 7x7, partner max 1 µM)
Found: 0.0594

###

Tested on: MFE-319 (Endometrial Carcinoma)
Method summary: Bliss excess, mean over the matrix (fraction); higher = more synergy
Bliss excess values, listed per item
Give a plain numeric answer without units written out.

Known results for compounds:
# Compound, Target system, Bliss excess
records = [
    ("C[C@@H](c1ccc2nccn2c1)n1nnc2ncc(-c3cnn(C)c3)nc21 [Savolitinib] + CC1(C)CCC(CN2CCN(c3ccc(C(=O)NS(=O)(=O)c4ccc(NCC5CCOCC5)c([N+](=O)[O-])c4)c(Oc4cnc5[nH]ccc5c4)c3)CC2)=C(c2ccc(Cl)cc2)C1 [Venetoclax] (first compound max 1 µM, 7x7, partner max 1 µM)", "MFE-319 (Endometrial Carcinoma)", -0.0764),
    ("CCc1c2c(nc3ccc(O)cc13)-c1cc3c(c(=O)n1C2)COC(=O)[C@]3(O)CC [SN-38] + CN(C)CCCOc1ccc(-c2ccc3ncc4c(c3c2)n(C2CCOCC2)c(=O)n4C)cn1 [AZD0156] (first compound max 0.3 µM, 7x7, partner max 1 µM)", "MFE-319 (Endometrial Carcinoma)", -0.0108),
    ("Cc1c2c(nn1C)CSCc1cc(n(C)n1)CSc1cc(c3ccccc3c1)OCCCc1c(C(=O)O)n(C)c3c-2c(Cl)ccc13 [AZD5991] + CC1(C)CCC(CN2CCN(c3ccc(C(=O)NS(=O)(=O)c4ccc(NCC5CCOCC5)c([N+](=O)[O-])c4)c(Oc4cnc5[nH]ccc5c4)c3)CC2)=C(c2ccc(Cl)cc2)C1 [Venetoclax] (first compound max 1 µM, 7x7, partner max 1 µM)", "MFE-319 (Endometrial Carcinoma)", 0.0377),
    ("C=CCn1c(=O)c2cnc(Nc3ccc(N4CCN(C)CC4)cc3)nc2n1-c1cccc(C(C)(C)O)n1 [AZD1775] + C1CN(CCC1(C(=O)N[C@@H](CCO)C2=CC=C(C=C2)Cl)N)C3=NC=NC4=C3C=CN4 [Capivasertib] (first compound max 3 µM, partner max 3 µM)", "MFE-319 (Endometrial Carcinoma)", -0.0524),
    ("NC1(C(=O)N[C@@H](CCO)c2ccc(Cl)cc2)CCN(c2ncnc3[nH]ccc23)CC1 [Capivasertib] + COc1nnc2ccc(N3CCC(c4ccc(OCCN5CCN(C)C(=O)[C@H]5C)cc4)CC3)nn12 [AZD5153] (first compound max 10 µM, 7x7, partner max 1 µM)", "MFE-319 (Endometrial Carcinoma)", 0.0499),
    ("Cc1c2c(nn1C)CSCc1cc(n(C)n1)CSc1cc(c3ccccc3c1)OCCCc1c(C(=O)O)n(C)c3c-2c(Cl)ccc13 [AZD5991] + Cn1cnc2c(F)c(Nc3ccc(Br)cc3Cl)c(C(=O)NOCCO)cc21 [Selumetinib] (first compound max 1 µM, 7x7, partner max 3 µM)", "MFE-319 (Endometrial Carcinoma)", -0.0233),
    ("CN(CCO)CC[C@H](CSc1ccccc1)Nc1ccc(S(=O)(=O)NC(=O)c2ccc(N3CCC([C@@H](O)c4ccccc4-c4ccc(Cl)cc4)CC3)cc2)cc1S(=O)(=O)C(F)(F)F [AZD4320] + CN(C)CCCOc1ccc(-c2ccc3ncc4c(c3c2)n(C2CCOCC2)c(=O)n4C)cn1 [AZD0156] (first compound max 1 µM, 7x7, partner max 1 µM)", "MFE-319 (Endometrial Carcinoma)", -0.0009),
    ("CC1(C)CCC(CN2CCN(c3ccc(C(=O)NS(=O)(=O)c4ccc(NCC5CCOCC5)c([N+](=O)[O-])c4)c(Oc4cnc5[nH]ccc5c4)c3)CC2)=C(c2ccc(Cl)cc2)C1 [Venetoclax] + COc1cc(Nc2ncc3c(n2)-c2ccc(Cl)cc2C(c2c(F)cccc2OC)=NC3)ccc1C(=O)O [Alisertib] (first compound max 1 µM, 7x7, partner max 10 µM)", "MFE-319 (Endometrial Carcinoma)", -0.0256),
]

Let us move to another entry and its Bliss excess.
Lookup: Report value only: Bliss excess, MFE-319 (Endometrial Carcinoma), COc1nnc2ccc(N3CCC(c4ccc(OCCN5CCN(C)C(=O)[C@H]5C)cc4)CC3)nn12 [AZD5153] + C=CCn1c(=O)c2cnc(Nc3ccc(N4CCN(C)CC4)cc3)nc2n1-c1cccc(C(C)(C)O)n1 [AZD1775] (first compound max 1 µM, partner max 1 µM)
Found: -0.13
